system: ticks (Ornithodoros moubata Murray); test: Ticks, first instar, fed on blood containing test compound; type: in vivo; details: 5.0 μg per 0.3 ml blood, 14 days at 30° C.
Measured property: % mortality (%)
Respond numerically; units are % and should not be typed.

// worked examples, % mortality included
1) C[C@@H](C/C=C/C(=O)CCc1ccc(Cl)cc1)CCCC(C)(C)O    0
2) C[C@@H](C/C=C/C(O)COc1ccccc1)CCCC(C)(C)O (some centres unmarked)    0
3) C[C@@H](C/C=C/C(O)CCc1ccccc1)CCCC(C)(C)O (some centres unmarked)    0
4) C[C@@H](C/C=C/C(=O)CCc1ccccc1)CCCC(C)(C)O    0

Now look at this one.
Looking up C[C@@H](C/C=C/C(O)CCCc1ccccc1)CCCC(C)(C)O (some centres unmarked) , I found its % mortality recorded as 29
